system: CYP3A4 (Homo sapiens, UniProt P08684)
Sequence (P08684 whole entry): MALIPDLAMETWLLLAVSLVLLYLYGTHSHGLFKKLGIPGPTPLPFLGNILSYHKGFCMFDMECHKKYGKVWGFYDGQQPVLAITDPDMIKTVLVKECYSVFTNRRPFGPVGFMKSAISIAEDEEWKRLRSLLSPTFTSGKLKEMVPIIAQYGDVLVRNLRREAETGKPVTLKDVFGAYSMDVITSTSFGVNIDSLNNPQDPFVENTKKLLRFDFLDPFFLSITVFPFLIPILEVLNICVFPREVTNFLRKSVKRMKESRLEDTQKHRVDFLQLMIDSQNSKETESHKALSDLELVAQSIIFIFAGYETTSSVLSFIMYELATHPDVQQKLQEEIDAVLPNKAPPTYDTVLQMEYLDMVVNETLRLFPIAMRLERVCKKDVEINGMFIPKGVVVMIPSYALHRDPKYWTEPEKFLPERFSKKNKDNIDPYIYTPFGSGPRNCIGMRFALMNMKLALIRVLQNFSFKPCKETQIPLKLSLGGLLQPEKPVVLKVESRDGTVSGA
method: Determination of IC50 against CYP3A4 by measurement of inhibition of midazolam metabolism (human liver microsomes, 1-hydroxymidazolam by LC-MS/MS)
Format: biochemical
Design: 0.1 mg/mL human liver microsomes
particulars: 2 μM midazolam, 0.1 mg/mL human liver microsomes
observation type: IC50 (nM)

1) COc1cncc(NS(=O)(=O)c2ccccc2C(=O)NCc2ccc(F)cc2Cl)c1 : 5
2) CCOc1cncc(NS(=O)(=O)c2ccccc2C(=O)N(C)Cc2ccc(F)c(F)c2)c1 : 15
3) COc1ccc(CNC(=O)c2ccccc2S(=O)(=O)Nc2cccnc2)cc1 : 69.6

a. CCOCCNC(=O)c1ccccc1S(=O)(=O)Nc1cnccc1OCC
b. COc1ccncc1NS(=O)(=O)c1ccccc1C(=O)N(C)Cc1ccccc1F
INPUT: I need your help: which of the pair a , b has higher IC50? Select an item and report its label.
OUTPUT: a
